Please go through the items and note down their CC50.
# assay explanation: Cytotoxicity against human HeLa cells assessed as cell death
# Assay type: cell-based
Give the number; µM is assumed, so skip it.

Recorded result, CC(=O)/C(C)=C/C=C/C=C\C=C\C=C\C=C\C=C\C=C/C=C/CC(=O)O , CC50: 45.1

Recorded result, CC(=O)/C(C)=C/C=C/C=C\C=C\C=C\C=C\C=C\C=C/CC(=O)O , CC50: 44.1
